- Tested on: chickens
- measurement_notes: Plasma thromboxane B2 and platelet factor 4 in chickens fed supplemented diets
- Assay type: in vivo, chicken
- particulars: control diet + 50 ppm, 4 weeks
Give Platelet Factor 4 for every item shown.
Respond numerically; units are ng/mL and should not be typed.

Which Platelet Factor 4 value belongs to CC(C)=CCC/C(C)=C/CC/C(C)=C/CCC1CCc2cc(O)ccc2O1 (centres unmarked) ?
7.27

Which Platelet Factor 4 value belongs to CC(C)=CCC/C(C)=C/CC/C(C)=C/CCC1(C)CCc2cc(O)c(C)c(C)c2O1 (centres unmarked) [γ-T3, γ-tocotrienol, reference compound] ?
8.36

Which Platelet Factor 4 value belongs to CC(C)=CCC/C(C)=C/CC/C(C)=C/CC[C@]1(C)CCc2c(C)c(O)c(C)c(C)c2O1 ?
8.78

Which Platelet Factor 4 value belongs to CC(C)=CCC/C(C)=C/CC/C(C)=C/CCC1(C)CCc2cc(O)cc(C)c2O1 (centres unmarked) ?
8.23

Which Platelet Factor 4 value belongs to CC(C)=CCC/C(C)=C/CC/C(C)=C/CCC1(C)CCc2cc(O)ccc2O1 (centres unmarked) ?
7.76
